- Tested on: subgenomic genotype 1a replicon cell line
- method-description: HCV replicon assay, genotype 1a
- Assay type: cell-based, HCV genotype 1a
- cond: Hepatitis C virus
- Protocol: A genotype 1b (Con 1) subgenomic replicon cell line based on Blight et al., Science 2000 290: 1972-1974, modified to express a Renilla luciferase reporter gene was used to assess antiviral activity of test compounds. Cell cultures were maintained in a sub-confluent state in DMEM with glutamine, 10% heat-inactivated foetal bovine serum (FBS) and G418 (Geneticin®). For assay, cells were seeded at a density of 7000 cells/well into 96 well tissue culture trays in culture media lacking G418. […]
observable: pEC50
Friendly reminder that pEC50 comes from taking -log10 of the concentration in mol/L.

CNC(=O)c1c2cc(C3CC3)c(N(CCCNC(=O)C(C)C)S(C)(=O)=O)cc2nn1-c1ccc(Br)cc1 [Compound 156]    6.68

Prompt: Lab note: need pEC50 for CNC(=O)c1c2cc(C3CC3)c(N(CCCNC(=O)[C@H]3CCC[C@@H]3C(=O)OC)S(C)(=O)=O)cc2nn1-c1ccc(Br)cc1 [Compound 216] on subgenomic genotype 1a replicon cell line, anyone have it?
Completion: 6.89

Prompt: Give subgenomic genotype 1a replicon cell line pEC50 for CCOC(=O)CCC(=O)NCCCN(c1cc2nn(-c3ccc(Br)cc3)c(C(=O)NC)c2cc1C1CC1)S(C)(=O)=O [Compound 164]
Completion: 8.00

Prompt: Field: pEC50 (subgenomic genotype 1a replicon cell line). Entry: CNC(=O)c1c2cc(C3CC3)c(N(CCCNC(=O)c3cccnc3OC)S(C)(=O)=O)cc2nn1-c1ccc(Br)cc1 [Compound 190]
Completion: 7.05

Prompt: Lab request: please report pEC50 under test system subgenomic genotype 1a replicon cell line for CNC(=O)c1c2cc(C3CC3)c(N(C)S(C)(=O)=O)cc2nn1-c1ccc(Br)cc1 [Compound 234]
Completion: 6.62

Prompt: Lab note: need pEC50 with subgenomic genotype 1a replicon cell line for entry CNC(=O)c1c2cc(C3CC3)c(N(CCCNC(=O)c3cccnc3)S(C)(=O)=O)cc2nn1-c1ccc(Br)cc1 [Compound 191] , please look it up.
Completion: 6.40

Prompt: I'm curious: which pEC50 was measured for CCN(c1cc2nn(-c3ccc(Oc4ccccc4F)cc3)c(C(=O)NC)c2cc1C1CC1)S(C)(=O)=O [Compound 28] tested on subgenomic genotype 1a replicon cell line?
Completion: 6.13
